Biological target: T1, AFP158/HLA-A*02:01 complex (human)
T1 construct: biotinylated on the BSP by BirA for ELISA and panning; also called biotinylated AFP158/HLA-A*02:01 complex; Bio-AFP158
Test: SPR; vs AS170036 VL1VH1;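 further: crude scFv captured on sensor chip, peptide–HLA complex flowed over at several concentrations, KD estimated from association and dissociation kinetic rates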
Assignment: determine reported Affinity increase for the given binders.
Only the number, expressed in fold, is required.

Note to self: Affinity increase recorded for AS170036 VL1VH1 HD102T (scFv) scFv: QSALTQPRSVSGSPGQSVTISCAGTSSDVGSENYVSWYQQHPGKAPKLMIYQVNKRASGVPDRFSGSKSGNTASLTISGLQAEDEADYYCASYRSSDHNIVFGGGTKLTVLGGGGSGGGGSGGGGSEVQLVESGGGLVQPGGSLRLSCAASGFTFSSYAMSWVRQAPGKGLEWVSTINSGTGSPYYADSVKGRFTISRDNSKNTLYLQMNSLRAEDTAVYYCAKNFFTGSWFLGPPAMDYWGQGTLVTVSSHHHHHH was 0.1

Note to self: Affinity increase recorded for AS170036 VL1VH1 HS57D (scFv) scFv: QSALTQPRSVSGSPGQSVTISCAGTSSDVGSENYVSWYQQHPGKAPKLMIYQVNKRASGVPDRFSGSKSGNTASLTISGLQAEDEADYYCASYRSSDHNIVFGGGTKLTVLGGGGSGGGGSGGGGSEVQLVESGGGLVQPGGSLRLSCAASGFTFSSYAMSWVRQAPGKGLEWVSTINSGTGDPYYADSVKGRFTISRDNSKNTLYLQMNSLRAEDTAVYYCAKNFFDGSWFLGPPAMDYWGQGTLVTVSSHHHHHH was 1.2

Note to self: Affinity increase recorded for AS170036 VL1VH1-VHS57M (scFv) scFv: QSALTQPRSVSGSPGQSVTISCAGTSSDVGSENYVSWYQQHPGKAPKLMIYQVNKRASGVPDRFSGSKSGNTASLTISGLQAEDEADYYCASYRSSDHNIVFGGGTKLTVLGGGGSGGGGSGGGGSEVQLVESGGGLVQPGGSLRLSCAASGFTFSSYAMSWVRQAPGKGLEWVSTINSGTGMPYYADSVKGRFTISRDNSKNTLYLQMNSLRAEDTAVYYCAKNFFDGSWFLGPPAMDYWGQGTLVTVSSHHHHHH was 2.7
